Hey, just so you know, these numbers are from patent US10370380B2.

Below, each entry is listed with its recorded pIC50.
assay.target: humanized OX2 receptor (Homo sapiens, UniProt O43614)
Construct: expressed in transfected cells; host or cells: HEK-293 cells
Sequence (O43614 whole entry): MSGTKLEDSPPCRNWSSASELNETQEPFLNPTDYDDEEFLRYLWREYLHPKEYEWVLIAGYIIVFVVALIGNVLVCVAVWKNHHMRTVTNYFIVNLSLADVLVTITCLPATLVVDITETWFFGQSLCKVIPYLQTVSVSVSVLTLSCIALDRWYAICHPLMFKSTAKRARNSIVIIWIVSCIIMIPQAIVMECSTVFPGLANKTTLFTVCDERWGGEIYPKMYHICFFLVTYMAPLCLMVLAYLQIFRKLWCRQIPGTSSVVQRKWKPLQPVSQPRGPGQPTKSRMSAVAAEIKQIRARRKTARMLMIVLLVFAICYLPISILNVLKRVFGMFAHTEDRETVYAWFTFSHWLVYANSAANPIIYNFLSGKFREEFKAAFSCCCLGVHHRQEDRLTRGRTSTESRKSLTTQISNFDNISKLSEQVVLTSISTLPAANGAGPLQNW
experimental.details: Antagonistic effect on humanized OX2 receptor, calcium flux by fluorescence detection in HEK-293 cells
Type: cell-based
condition.info: HEK-293 cells, calcium flux induced by 10 nM orexin B; read-out: OX2 IC50
Answer as the number alone; pIC50 is minus log10 of concentration in mol/L.

INSERT INTO measurements (compound, assay_target, result_number) VALUES
  ('O=C(c1ccccc1-n1nccn1)N1CC2CN(c3nc4cc(Cl)ccc4o3)CC2C1 (stereo not drawn)', 'humanized OX2 receptor (Homo sapiens, UniProt O43614)', 6.66);

Look at this compound and give its reported pIC50. O=C(c1c(F)cccc1-n1nccn1)N1CC2CN(c3nc4cc(Cl)ccc4o3)CC2C1 (stereo not drawn)
6.83

What value of pIC50 has been recorded for this entry: O=C(c1c(F)cccc1-n1nccn1)N1CC2CN(c3nc4cc(F)ccc4o3)CC2C1 (stereo not drawn)
6.70
